These entries and their values trace back to patent US20240270751A1.

# target system: DGKζ (Homo sapiens (Human))
# Sequence (Q13574 other isoform, or with tags, fused parts or gaps): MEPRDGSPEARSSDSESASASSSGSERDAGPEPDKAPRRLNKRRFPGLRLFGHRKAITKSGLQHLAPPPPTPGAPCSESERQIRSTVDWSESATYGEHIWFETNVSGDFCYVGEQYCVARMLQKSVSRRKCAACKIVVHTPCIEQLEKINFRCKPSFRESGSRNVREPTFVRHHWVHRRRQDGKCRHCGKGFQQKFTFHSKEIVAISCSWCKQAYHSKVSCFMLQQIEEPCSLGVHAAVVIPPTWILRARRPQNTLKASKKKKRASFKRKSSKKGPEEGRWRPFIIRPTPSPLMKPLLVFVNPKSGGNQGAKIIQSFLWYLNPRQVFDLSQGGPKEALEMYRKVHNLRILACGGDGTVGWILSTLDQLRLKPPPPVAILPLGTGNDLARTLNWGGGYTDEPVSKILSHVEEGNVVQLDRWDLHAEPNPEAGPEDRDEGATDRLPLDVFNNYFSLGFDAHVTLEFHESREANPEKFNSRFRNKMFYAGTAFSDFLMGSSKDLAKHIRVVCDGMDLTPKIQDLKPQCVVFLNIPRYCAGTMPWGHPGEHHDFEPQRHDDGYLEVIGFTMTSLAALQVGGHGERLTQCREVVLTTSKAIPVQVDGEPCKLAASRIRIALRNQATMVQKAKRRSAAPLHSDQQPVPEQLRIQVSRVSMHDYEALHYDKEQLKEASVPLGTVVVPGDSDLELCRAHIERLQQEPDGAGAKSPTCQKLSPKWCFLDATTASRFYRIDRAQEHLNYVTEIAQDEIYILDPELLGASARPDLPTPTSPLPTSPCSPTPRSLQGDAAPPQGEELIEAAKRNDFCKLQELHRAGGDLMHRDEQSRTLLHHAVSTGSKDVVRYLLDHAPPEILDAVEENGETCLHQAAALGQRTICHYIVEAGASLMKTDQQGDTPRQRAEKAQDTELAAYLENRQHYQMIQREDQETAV
# protocol notes: Biochemical DGK IC50 assay, DGKζ ADP-Glo assay
# settings: 0.5 nM enzyme, 140 μM ATP, 80 μM DAG; read-out: DGKζ ADP-Glo assay IC50
pIC50: −log10 of the molar value.
recorded metric: pIC50

Incoming: Supply pIC50 value. Item: CC(c1ccc2nccnc2c1)N1CCN(c2cc(=O)n(C)c3cn(CC#N)nc23)CC1CO (stereo not shown)
Outgoing: 5.22

Incoming: Supply pIC50 value. Item: CC[C@H]1CN([C@@H](C)c2ccc3nccnc3c2)[C@H](CC)CN1c1cc(=O)[nH]c2cn(CC#N)nc12
Outgoing: 7.48

Incoming: Supply pIC50 value. Item: Cc1cnc2ccc([C@H](C)N3C[C@H](C)N(c4cc(=O)[nH]c5cn(CC#N)nc45)C[C@H]3C)cc2n1
Outgoing: 7.14

Incoming: Supply pIC50 value. Item: CC[C@H]1CN(C(C)c2ccc(OC(F)F)nc2)[C@H](CC)CN1c1cc(=O)n(C)c2cn(CC#N)nc12 (single isomer, unassigned) [Compound A180a]
Outgoing: 7.82

Incoming: Supply pIC50 value. Item: CC[C@H]1CN(C(C)c2ccc(F)cc2Br)[C@H](CC)CN1c1cc(=O)n(C)c2cn(CC#N)nc12 (stereo partly shown)
Outgoing: 7.02

Incoming: Supply pIC50 value. Item: CC[C@H]1CN(C2CCc3ccccc32)[C@H](CC)CN1c1cc(=O)n(C)c2cn(CC#N)nc12 (single isomer, unassigned) [Compound A149b]
Outgoing: 5.65

Incoming: Supply pIC50 value. Item: CC[C@H]1CN(C(C)c2ccc(F)cc2OC(F)F)[C@H](CC)CN1c1cc(=O)n(C)c2cn(CC#N)nc12 (single isomer, unassigned) [Compound A171a]
Outgoing: 7.19

Incoming: Supply pIC50 value. Item: CC[C@H]1CN(C(C)c2cnn(C)c2C(F)F)[C@H](CC)CN1c1cc(=O)n(C)c2cn(CC#N)nc12 (stereo partly shown)
Outgoing: 6.80

Incoming: Supply pIC50 value. Item: CC[C@H]1CN(C(C)c2cn(C)nc2C(F)(F)F)[C@H](CC)CN1c1cc(=O)n(C)c2cn(CC#N)nc12 (stereo partly shown)
Outgoing: 5.51

Incoming: Supply pIC50 value. Item: CC[C@H]1CN(C(C)c2ccc(C)cc2)[C@H](CC)CN1c1cc(=O)n(C)c2cn(CC#N)nc12 (single isomer, unassigned) [Compound A127b]
Outgoing: 5.43

(A) CC(c1ccccc1)N1C[C@H](C)N(c2cc(=O)n(C)c3cn(CC#N)nc23)C[C@H]1C (stereo partly shown)
(B) CC[C@H]1CN(C(C)c2ccc(C)c(OC)n2)[C@H](CC)CN1c1cc(=O)n(C)c2cn(CC#N)nc12 (stereo partly shown)
Incoming: Quick check, higher pIC50 between A and B ? Reply briefly: the label of your chosen item.
Outgoing: B
